// provenance: patent US8871934B2

target.desc: human PDHK2 (hPDHK2) (Homo sapiens (Human), UniProt Q15119)
experiment.description: Inhibitory action of PDHK activity in vitro (kinase reaction, residual PDH activity measured)
Assay type: biochemical
experimental.parameters: read-out: PDHK inhibitory activity IC50
// IC50 lookup, one value per entry
Kindly answer with a numeric value in µM, unit omitted.

Sample answers from the record:
O=C(O)CCCOc1cc(-c2cnn(CCO)c2)c2c(c1)C(O)(C(F)(F)F)c1ccccc1-2 (centres unmarked): 0.04
CNC(=O)CCCOc1ccc2c(c1)C(O)(C(F)(F)F)c1ccccc1-2 (centres unmarked): 1
CC(C)Cc1cc(-c2cnn(C(CO)CO)c2)c2c(c1)C(O)(C(F)(F)F)c1ccccc1-2 (centres unmarked) [compound 648]: 0.044

Problem: // fetch human PDHK2 (hPDHK2) (Homo sapiens (Human), UniProt Q15119) IC50 for Cn1nnc(-c2cccc3c2-c2ccccc2C3(O)C(F)(F)F)n1 (centres unmarked)
Result: 1.61

Problem: Record: O=C(c1cc(-c2cccnc2)c2c(c1)C(O)(C(F)(F)F)c1ccccc1-2)N1CCC1 (centres unmarked)
Result: 0.086

Problem: Record: Cc1cc(C(=O)N2CC(OCC(N)=O)C2)cc2c1-c1ccccc1C2(O)C(F)(F)F (centres unmarked)
Result: 0.109

Problem: Record: O=C(c1cnc2c(c1)C(O)(C(F)(F)F)c1ccccc1-2)N1CCC1 (centres unmarked)
Result: 0.173
